# TEST_METHOD_NOTES: Serum protein binding estimated from MIC shift, serum vs serum ultrafiltrate (mouse)
# Assay type: in vitro ADME
# APPLIED_CONDITIONS: pooled mouse serum compared with serum ultrafiltrate; mouse serum; from mean MICs, broth microdilution; this study; read-out: % Bound (protein binding estimate) (converted)

{"columns": ["ITEM_SMILES", "fraction unbound"],
 "data": [
  ["CO/N=C(\\C(=O)N[C@@H]1C(=O)N2C(C(=O)O)=C(CSc3nc(=O)c(=O)[nH]n3C)CS[C@H]12)c1csc(N)n1", 0.625]
]}

====

# TEST_METHOD_NOTES: Serum protein binding from MIC shift, summary across species
# Assay type: in vitro ADME, human, mouse, rat, dog
# APPLIED_CONDITIONS: pooled serum compared with serum ultrafiltrate; serum from mouse, rat, and beagle dog; MIC shift; read-out: Serum protein binding estimates, range
MEASURE: fraction unbound

{"columns": ["COMPOUND", "MEASURE", "OBS_VALUE"],
 "data": [
  ["CO/N=C(\\C(=O)N[C@@H]1C(=O)N2C(C(=O)O)=C(CSc3nc(=O)c(=O)[nH]n3C)CS[C@H]12)c1csc(N)n1 [Ceftriaxone]", "fraction unbound", "0.625 to 0.791"]
]}
